Target: acetylcholinesterase (Rattus norvegicus)
Construct: corpora striata dissected free, weighted and homogenized in 19 volumes (approximately 7 mg protein/ml) of 0.05M Phosphate Buffer; from tissue; host or cells: rat brain corpora striata, crude homogenate
Sequence (P37136 32-614): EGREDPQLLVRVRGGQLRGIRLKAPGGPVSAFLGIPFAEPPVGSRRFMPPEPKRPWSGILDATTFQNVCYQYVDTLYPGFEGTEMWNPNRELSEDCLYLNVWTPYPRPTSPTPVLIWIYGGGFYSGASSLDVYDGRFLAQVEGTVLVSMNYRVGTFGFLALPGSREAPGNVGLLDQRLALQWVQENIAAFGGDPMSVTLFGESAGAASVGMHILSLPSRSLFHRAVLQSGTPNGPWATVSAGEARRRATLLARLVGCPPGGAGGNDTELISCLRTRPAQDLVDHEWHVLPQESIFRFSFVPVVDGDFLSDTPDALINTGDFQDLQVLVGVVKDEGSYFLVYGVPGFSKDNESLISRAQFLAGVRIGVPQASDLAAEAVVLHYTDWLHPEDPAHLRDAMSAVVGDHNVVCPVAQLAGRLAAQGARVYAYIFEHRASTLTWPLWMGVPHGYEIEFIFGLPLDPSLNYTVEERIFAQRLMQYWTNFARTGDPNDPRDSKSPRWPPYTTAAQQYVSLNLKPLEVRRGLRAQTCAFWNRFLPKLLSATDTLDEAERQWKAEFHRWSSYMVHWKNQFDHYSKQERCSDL
Assay: biochemical
Conditions: Male Wistar rat corpora striata homogenate; preincubated 10 minutes at 37° C.; acetylthiocholine substrate 5 millimolar final; log-probit analysis; read-out: Inhibition of Acetylcholinesterase Activity IC50
Experimental: 1. 0.05M Phosphate Buffer (pH 7.2) […] The 0.05M Phosphate Buffer (pH 7.2) was added to 5.5-dithiobisnitrobenzoic acid to a total volume of 100 ml, i.e., a quantity sufficient (gs) to 100 ml. […] A 2 millimolar stock solution of the test drug is prepared in a quantity sufficient of either acetic acid or dimethyl sulfoxide to volume with 5,5-dithiobisnitrobenzoic acid in Buffer. […] IC50 values are calculated from log-probit analysis
Where a name gives a salt, the structure may show the parent alone.
REPORTED_ENDPOINT: IC50
The answer consists of two parts: a number and, after it, its unit.

COc1cc(C(C)N2CCN(c3ccccn3)CC2)ccc1OC(=O)N(C)C (stereo not shown) [Example 78, Dihydrochloride] : 358 nM
COc1cc(CN2CCN(c3ccccn3)CC2)c(Br)cc1OC(=O)N(C)C : 18 nM
CNC(=O)Oc1cc(CN2CCN(c3ccccn3)CC2)ccc1OC [Example 38, Dihydrochloride] : 2390 nM

Now let's try a different one.
Inquiry: Look up IC50 with acetylcholinesterase (Rattus norvegicus) for this compound: CNC(=O)Oc1ccc(CN2CCN(c3ccccn3)CC2)cc1OC [Example 35, Hydrochloride Monohydrate]
Reply text: 536 nM
